Values from paper PMC8533149

Entries and their measured LTR-III ΔTm follow.
# Tested on: HIV-1 LTR-III G-quadruplex (FAM/TAMRA-labeled LTR-III)
# method_notes: FRET melting assay, LTR-III G4
# Type: binding
# test_conditions: Table S1 primary screening, ligand:ODN 50:1, singlicate
Just the number in °C, nothing appended.

[in] GET /values?readout=LTR-III ΔTm&system=HIV-1 LTR-III G-quadruplex (FAM/TAMRA-labeled LTR-III)&item= CC1=NC(=Cc2ccc([N+](=O)[O-])c(O)c2)C(=O)N1C [SV 52.7]
[out] -0.2

[in] GET /values?readout=LTR-III ΔTm&system=HIV-1 LTR-III G-quadruplex (FAM/TAMRA-labeled LTR-III)&item= CCCC1=NC(=Cc2ccc(O[Si](c3ccccc3)(c3ccccc3)C(C)(C)C)cc2)C(=O)N1C [M 1550]
[out] -0.1

[in] GET /values?readout=LTR-III ΔTm&system=HIV-1 LTR-III G-quadruplex (FAM/TAMRA-labeled LTR-III)&item= O=C1NC(=S)NC1=Cc1ccc(O)cc1 [M 2497]
[out] 0

[in] GET /values?readout=LTR-III ΔTm&system=HIV-1 LTR-III G-quadruplex (FAM/TAMRA-labeled LTR-III)&item= CC1=NC(=Cc2ccc(O)cc2Br)C(=O)N1C [ZS 174]
[out] -0.3

[in] GET /values?readout=LTR-III ΔTm&system=HIV-1 LTR-III G-quadruplex (FAM/TAMRA-labeled LTR-III)&item= CCN(CC)c1ccc(C=C2N=C(C=CC=Cc3ccc(OC)cc3)N(C)C2=O)c(B(F)F)c1 [M 1971c]
[out] 0.6

[in] GET /values?readout=LTR-III ΔTm&system=HIV-1 LTR-III G-quadruplex (FAM/TAMRA-labeled LTR-III)&item= CN1C(=O)C(=Cc2cc(Cl)c(O)c(Cl)c2)N=C1C=Cc1ccncc1 [N 901]
[out] 0.4

[in] GET /values?readout=LTR-III ΔTm&system=HIV-1 LTR-III G-quadruplex (FAM/TAMRA-labeled LTR-III)&item= CSC1=NC(=Cc2ccc(O)cc2)C(=O)N1C [SA 581]
[out] 1

[in] GET /values?readout=LTR-III ΔTm&system=HIV-1 LTR-III G-quadruplex (FAM/TAMRA-labeled LTR-III)&item= CC(C)OC(=O)c1noc(=O)c(O)c1-c1ccc(O)cc1 [AL 23]
[out] 0

[in] GET /values?readout=LTR-III ΔTm&system=HIV-1 LTR-III G-quadruplex (FAM/TAMRA-labeled LTR-III)&item= CN(C)C=CC1=NC(=C(N)c2ccccc2)C(=O)N1C [ZS 182]
[out] 0

[in] GET /values?readout=LTR-III ΔTm&system=HIV-1 LTR-III G-quadruplex (FAM/TAMRA-labeled LTR-III)&item= CC1=NC(=Cc2ccc(O)c(F)c2)C(=O)N1CC(N)=O [SA 99]
[out] 0.1

[in] GET /values?readout=LTR-III ΔTm&system=HIV-1 LTR-III G-quadruplex (FAM/TAMRA-labeled LTR-III)&item= CC1=NC(=Cc2ccco2)C(=O)N1C [M 1583.2]
[out] -0.5

[in] GET /values?readout=LTR-III ΔTm&system=HIV-1 LTR-III G-quadruplex (FAM/TAMRA-labeled LTR-III)&item= COc1ccc(C=C2N=C3C(=O)NCCN3C2=O)cc1OC [JL 06.2]
[out] 0.4
